System name: recombinant human 11β-HSD1 (Homo sapiens, UniProt P28845)
Sequence (P28845 whole entry): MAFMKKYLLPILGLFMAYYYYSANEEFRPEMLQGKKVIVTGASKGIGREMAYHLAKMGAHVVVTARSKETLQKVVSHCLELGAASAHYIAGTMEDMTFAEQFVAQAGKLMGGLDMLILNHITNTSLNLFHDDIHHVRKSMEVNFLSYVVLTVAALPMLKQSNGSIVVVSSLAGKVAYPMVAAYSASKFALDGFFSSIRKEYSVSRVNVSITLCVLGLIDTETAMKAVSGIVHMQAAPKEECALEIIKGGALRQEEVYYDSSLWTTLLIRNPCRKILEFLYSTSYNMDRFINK
Experiment summary: Enzyme activity assay on human 11β-HSD1 (HTRF, cortisol production)
Condition parameters: recombinant human 11β-HSD1, 5 μM cortisone as substrate, 2 hours at 37° C., read-out: humanIC50
pIC50: −log10 of the molar value.
Measured quantity: pIC50

{"columns": ["Compound", "pIC50"],
 "data": [
  ["CC(C)Sc1c(OCC(C)(C)NC(=O)NCCN)noc1C(=O)NC1C2CC3CC(C2)CC1C3 (stereo not drawn)", 6.59]
]}

A: CC(C)(COc1noc(C(=O)N[C@H]2C3CC4CC2C[C@](O)(C4)C3)c1SC1CCCC1)N1CCOC1=O
B: O=C(NC1(COc2noc(C(=O)N[C@H]3C4CC5CC3C[C@](O)(C5)C4)c2SC2CCCC2)CC1)c1ccc(Cl)cc1Cl
C: CC(C)Sc1c(OCC2CCNCC2)noc1C(=O)NC1C2CCCC1CCC2 (stereo not drawn) [Compound 12b]
Put the compounds in ascending order of pIC50. Hello, could you send the labels back in the order asked? Thank you.
C, A, B
(C: 6.85, A: 7.60, B: 8.00)

* * *

System name: recombinant mouse 11β-HSD1 (Mus musculus, UniProt P50172)
Sequence (P50172 whole entry): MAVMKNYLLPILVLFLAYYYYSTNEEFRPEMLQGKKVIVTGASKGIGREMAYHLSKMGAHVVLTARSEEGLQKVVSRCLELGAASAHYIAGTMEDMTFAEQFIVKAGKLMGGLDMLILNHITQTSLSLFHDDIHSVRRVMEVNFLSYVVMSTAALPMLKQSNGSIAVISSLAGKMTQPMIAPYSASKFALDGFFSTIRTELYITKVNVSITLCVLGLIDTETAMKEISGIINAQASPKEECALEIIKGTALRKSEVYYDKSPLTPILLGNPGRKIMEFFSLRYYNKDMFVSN
Experiment summary: Enzyme activity assay on mouse 11β-HSD1 (HTRF, corticosterone production)
Format: biochemical
Condition parameters: recombinant mouse 11β-HSD1, 2 μM 11-dehydrocorticosterone as substrate, 2 hours at 37° C., read-out: mouseIC50
Measured quantity: IC50 (nM)

{"columns": ["Compound", "IC50 [nM]"],
 "data": [
  ["CCCSc1c(OCC2CCNCC2)noc1C(=O)NC1C2CC3CC(C2)CC1C3 (stereo not shown) [Compound 9c]", 500],
  ["CC(C)Sc1c(OCC2CCNCC2)noc1C(=O)NC1C2CCCC1CCC2 (stereo not shown) [Compound 12b]", 1600]
]}

P: CC(C)Sc1c(OCC(F)(F)C(=O)NCCN)noc1C(=O)NC1C2CC3CC(C2)CC1C3 (stereo not shown) [II-25]
Q: CC(C)Sc1c(OCC(C)(C)C#N)noc1C(=O)N[C@H]1C2CC3CC1C[C@](O)(C3)C2 [II-130]
Which item exceeds the other in IC50, P or Q ? Mark your selection by writing its label.
P
(P: 160 nM, Q: 33 nM)

* * *

System name: recombinant human 11β-HSD1 (Homo sapiens)
Experiment summary: Enzyme activity assay on human 11β-HSD1 (HTRF, cortisol production)
Type: biochemical
Condition parameters: recombinant human 11β-HSD1, 5 μM cortisone as substrate, 2 hours at 37° C., read-out: humanIC50
pIC50: −log10 of the molar value.
Measured quantity: pIC50

{"columns": ["Molecule", "pIC50"],
 "data": [
  ["CC(C)Sc1c(OCC(C)(C)N)noc1C(=O)NC1C2CC3CC(C2)CC1C3 (centres unmarked)", 7.37]
]}

I: COCC(C)(C)COc1noc(C(=O)NC2C3CC4CC(C3)CC2C4)c1SC(C)C (centres unmarked)
II: CC(C)Sc1c(OCC(F)(F)C(=O)NCCN)noc1C(=O)NC1C2CC3CC(C2)CC1C3 (centres unmarked)
III: CCCSc1c(OCC2CCNCC2)noc1C(=O)NC1C2CC3CC(C2)CC1C3 (centres unmarked)
Order the items by recorded pIC50; the first position goes to the largest value. Record the ranking as a list of labels in the requested order.
II, I, III
(II: 7.29, I: 7.02, III: 6.74)
